# system-under-test: human GnRH receptor (Homo sapiens)
# Construct: expressed in transfected cells; host or cells: HEK 293 (hGnRH-R/293, from Dr. Stuart Sealfon)
# Sequence (P30968 whole entry): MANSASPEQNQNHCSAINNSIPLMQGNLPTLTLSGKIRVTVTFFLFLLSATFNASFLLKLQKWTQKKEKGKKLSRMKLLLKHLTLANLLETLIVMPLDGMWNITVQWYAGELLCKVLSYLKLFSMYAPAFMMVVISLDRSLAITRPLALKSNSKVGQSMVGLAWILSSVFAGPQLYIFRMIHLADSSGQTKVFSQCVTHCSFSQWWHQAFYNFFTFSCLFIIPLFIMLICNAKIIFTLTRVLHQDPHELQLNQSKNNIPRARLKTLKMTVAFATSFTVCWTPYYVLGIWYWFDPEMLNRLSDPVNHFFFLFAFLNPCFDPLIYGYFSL
# experimental-details: Radioligand binding, 125I-GnRH-A displacement, membranes of HEK 293 cells with human GnRH receptor
# recorded-conditions: 1 h, repeat of % Inhib. at 1 uM; read-out: Repeats @ 1 uM hGnRH
Rule: inhibition at 1 µM of 20% or more gives true (1); anything lower gives false (0).

COc1ccc(C(NC(=O)c2ccc(Cc3cc4c(cc3C)C(C)(C)CCC4(C)C)o2)c2ccc(OC)cc2)cc1 :: true (1)
CCCCN(Cc1ccccc1)C(=O)c1ccc(Cc2cc3c(cc2C)C(C)(C)CCC3(C)C)o1 :: false (0)
Cc1cc2c(cc1Cc1ccc(C(=O)NCc3ccc(Cl)c(C(F)(F)F)c3)o1)C(C)(C)CCC2(C)C :: false (0)
Cc1cc2c(cc1Cc1ccc(C(=O)NC3CCCCC3Cc3ccnc(NCC4CCCO4)n3)o1)C(C)(C)CCC2(C)C (stereo not drawn) :: false (0)
Cc1cc2c(cc1Cc1ccc(C(=O)NC(CO)CSCc3ccccc3)o1)C(C)(C)CCC2(C)C (stereo not drawn) :: false (0)

Could you verify whether the entry Cc1cc2c(cc1Cc1ccc(C(=O)NCCc3c[nH]cn3)o1)C(C)(C)CCC2(C)C [drawing 1031] shows inhibition at 1 µM of no less than 20%?
true (1)

Check if inhibition at 1 µM >= 20% (inclusive). Item: Cc1cc2c(cc1Cc1ccc(C(=O)N3CCN(c4ccc(Cl)c(Cl)c4)CC3)o1)C(C)(C)CCC2(C)C
false (0)

Form field: inhibition at 1 µM at least 20%? Entry: Cc1cc2c(cc1Cc1ccc(C(=O)NCc3ccc(Cl)cc3)o1)C(C)(C)CCC2(C)C [drawing 1091]
true (1)

Is it the case that Cc1cc2c(cc1Cc1ccc(C(=O)NCCc3cccc(C(F)(F)F)c3)o1)C(C)(C)CCC2(C)C [drawing 1020] has inhibition at 1 µM reaching or exceeding 20%?
true (1)

src = patent US7101878B1
